Where these numbers come from: ChEMBL document CHEMBL4152224

assaySummary: Buffer/octanol partition coefficient, log D of the compound at pH 7.4 by shake flask method
Format: physicochemical
Listing of entries alongside the reported logD.
Output spec: single numeric token, no unit.

COCc1ccc(-c2cc3c(cc2F)ncc2c3n([C@@H](C)C3CCOCC3)c(=O)n2C)cn1; 2.7
CCC(CC)CNc1c(C(N)=O)cnc2cc(F)c(-c3cnc(NCCN4CCCC4)nc3)cc12; 2.8
CO[C@H]1C[C@@H](n2c(=O)n(C)c3cnc4ccc(-c5ccc(OCCCN6CCC(O)CC6)nc5)cc4c32)C1; 0.6

Reported logD ( CO[C@H]1C[C@@H](n2c(=O)n(C)c3cnc4ccc(-c5ccc(OCCCN(C)C)nc5F)cc4c32)C1 ) = 2

Entry CO[C@H]1C[C@@H](n2c(=O)n(C)c3cnc4cc(F)c(-c5ccc(NC(=O)CCCN(C)C)nc5)cc4c32)C1 — recorded logD = 1.1

compound CO[C@H]1C[C@@H](n2c(=O)n(C)c3cnc4ccc(-c5ccc(OCCCN6CCCC6)nc5)cc4c32)C1 , logD observed: 1.8
